meta.source: patent US11267800B2

- TESTED_TARGET: human LPA1 (Homo sapiens)
- Sequence (Q92633 whole entry): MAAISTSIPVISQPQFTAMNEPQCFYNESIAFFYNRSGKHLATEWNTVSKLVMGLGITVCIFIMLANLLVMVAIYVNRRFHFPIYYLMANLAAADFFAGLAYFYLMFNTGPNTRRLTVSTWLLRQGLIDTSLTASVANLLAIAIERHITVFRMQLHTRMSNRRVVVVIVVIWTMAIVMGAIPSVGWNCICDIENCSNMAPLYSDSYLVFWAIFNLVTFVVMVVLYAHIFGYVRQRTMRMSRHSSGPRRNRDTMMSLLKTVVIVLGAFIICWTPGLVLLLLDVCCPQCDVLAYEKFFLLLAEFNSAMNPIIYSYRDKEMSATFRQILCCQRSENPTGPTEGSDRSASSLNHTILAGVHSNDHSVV
- ASSAY_OVERVIEW: LPA1 functional antagonist assay (calcium flux)
- MEASUREMENT_CONTEXT: CHO cells overexpressing human LPA1; inhibition of calcium flux induced by 10 nM LPA; read-out: hLPA1 IC50
EXPERIMENTAL_ENDPOINT: IC50 (nM)

Example compounds with recorded IC50:
# COMPOUND, UNITS, VAL
measured = [
    ("CCNc1nc(OCc2c(-c3ccc(O[C@H]4CCC[C@H](C(=O)O)C4)c(C)n3)nnn2C)ncc1F [Example 264]", "nM", 76),
    ("CCc1nccc(OCc2c(-c3ccc(O[C@H]4CCC[C@H](C(=O)O)C4)c(C)n3)nnn2C)n1 [Example 306]", "nM", 36),
    ("Cc1nc(-c2nnn(C)c2CNc2nccc(OCC(F)F)n2)ccc1O[C@H]1CCC[C@H](C(=O)O)C1 [Example 79]", "nM", 80),
    ("Cc1nc(-c2nnn(C)c2CNc2ccnc(OCC(C)(C)F)n2)ccc1O[C@H]1CCC[C@H](C(=O)O)C1 [Example 55]", "nM", 189),
    ("Cc1nc(-c2nnn(C)c2CNc2nccc(OCC3CC3)n2)ccc1O[C@H]1CCC[C@H](C(=O)O)C1 [Example 334]", "nM", 19),
    ("CCC(C)Cc1ncnc(NCc2c(-c3ccc(O[C@H]4CCC[C@H](C(=O)O)C4)c(C)n3)nnn2C)n1 (some centres unmarked) [Example 204]", "nM", 106),
    ("Cc1nc(-c2nnn(C)c2CNc2nccc(C3CC3C)n2)ccc1O[C@H]1CCC[C@H](C(=O)O)C1 (some centres unmarked) [Example 154]", "nM", 43),
    ("Cc1nc(-c2nnn(C)c2CNc2ncnc(C3CCC3)n2)ccc1O[C@H]1CCC[C@H](C(=O)O)C1 [Example 183]", "nM", 54),
    ("Cc1nc(-c2nnn(C)c2COc2cc(C(F)F)ccn2)ccc1O[C@H]1CCC[C@H](C(=O)O)C1 [Example 315]", "nM", 22),
    ("CCC(C)c1ccnc(NCc2c(-c3ccc(O[C@H]4CCC[C@H](C(=O)O)C4)c(C)n3)nnn2C)n1 (some centres unmarked) [Example 159]", "nM", 21),
]

[P] CCc1nc(CC)nc(NCc2c(-c3ccc(O[C@H]4CCC[C@H](C(=O)O)C4)c(C)n3)nnn2C)n1 [Example 203]
[Q] Cn1nnc(-c2ccc(O[C@H]3CCC[C@H](C(=O)O)C3)c(C#N)n2)c1CNc1nccc(C(C)(C)C)n1 [Example 407]
Req: Hi there! Just curious which has the higher IC50 between P and Q . Indicate your choice by writing its label.
Resp: Q
(Q: 104 nM, P: 59 nM)

[A] COc1ccnc(OCc2c(-c3ccc(O[C@H]4CCC[C@H](C(=O)O)C4)c(C)n3)nnn2C)n1 [Example 346]
[B] CCOc1ccnc(NCc2c(-c3ccc(O[C@H]4CCC[C@H](C(=O)O)C4)cn3)nnn2C)n1 [Example 141]
Req: Please indicate which item has the smaller measured IC50: A versus B // return label of chosen record
Resp: B
(B: 22 nM, A: 77 nM)

[a] Cc1nc(-c2nnn(C)c2CNc2ncc(F)c(NC3CCC3)n2)ccc1O[C@H]1CCC[C@H](C(=O)O)C1 [Example 53]
[b] Cc1nc(-c2nnn(C)c2COc2cc(-n3cccn3)ncn2)ccc1O[C@H]1CCC[C@H](C(=O)O)C1 [Example 369]
[c] Cc1nc(-c2nnn(C)c2CNc2nccc(Oc3cc(F)ccc3F)n2)ccc1O[C@H]1CCC[C@H](C(=O)O)C1 [Example 103]
Req: // smallest IC50 at index 0, largest at the end When ranking, write the labels in the order the request describes.
Resp: b, c, a
(b: 8.4 nM, c: 33 nM, a: 58 nM)

[a] Cc1nc(-c2nnn(C)c2CNc2cc(C3CC3)ncn2)ccc1O[C@H]1CCC[C@H](C(=O)O)C1 [Example 373]
[b] Cc1cc(OCc2c(-c3ccc(O[C@H]4CCC[C@H](C(=O)O)C4)c(C)n3)nnn2C)ncn1 [Example 342]
Req: Kindly compare a with b and tell me which has the lower IC50 figure. Please respond with the label that marks your chosen entry.
Resp: a
(a: 80 nM, b: 118 nM)

[P] Cc1nc(-c2nnn(C)c2COc2cc(Cl)ncn2)ccc1O[C@H]1CCC[C@H](C(=O)O)C1 [Example 304]
[Q] Cc1nc(-c2nnn(C)c2CNc2nccc(OCC(C)C)n2)ccc1O[C@H]1CCC[C@H](C(=O)O)C1 [Example 93]
Req: I need your help: which of the pair P , Q has higher IC50? Answer format: the label of the selected item.
Resp: P

[A] COc1nccc(OCc2c(-c3ccc(O[C@H]4CCC[C@H](C(=O)O)C4)c(C)n3)nnn2C)n1 [Example 344]
[B] Cc1nc(-c2nnn(C)c2CNc2nccc(Oc3ccccc3)n2)cnc1O[C@H]1CCC[C@H](C(=O)O)C1 [Example 130]
Req: Returns the identifier with the smallest measured IC50 among A and B . # answer = label of selected item
Resp: B
(B: 105 nM, A: 378 nM)
